- Tested on: MEXF 276L
- Assay info: Monolayer propidium iodide assay, MEXF 276L
- Format: cell-based
- Applied conditions: Homo sapiens, MEXF276L, 96 h, Melanoma, 4 days of treatment
- Description: Oncotest GmbH, Germany's proprietary tumor cell line panel comprises 40 cell lines. These cell lines were derived from 15 different tumor histotypes, each represented by 1 to 6 different cell lines. […] Stock solutions of the compound of formula (1) (3.3 mM in DMSO) were prepared and stored in small aliquots (200 μl) at −20° C. […] Each concentration was evaluated in triplicate. […]

[
  {
    "Molecule": "CCCC1CCCCCC(O)CC(=O)NC2CSSCC(NC2=O)C(=O)O1 (stereo not shown)",
    "Result units": "nM",
    "IC50": 90
  }
]

====

- Test system: PAXF 546L
- Assay info: Monolayer propidium iodide assay, PAXF 546L
- Assay type: cell-based
- Applied conditions: Homo sapiens, 96 h, Pancreas, 4 days of treatment
Parameter measured: IC50

[
  {
    "Compound": "CCCC1CCCCCC(O)CC(=O)NC2CSSCC(NC2=O)C(=O)O1 (stereo not shown)",
    "Parameter measured": "IC50",
    "Observed value": "16 nM"
  }
]

====

- Tested on: LIXF 575L
- Assay info: Monolayer propidium iodide assay, LIXF 575L
- Type: cell-based
- Applied conditions: Homo sapiens, 96 h, Liver, 4 days of treatment

[
  {
    "Compound": "CCCC1CCCCCC(O)CC(=O)NC2CSSCC(NC2=O)C(=O)O1 (stereo not shown) [compound of formula (1)]",
    "Result units": "nM",
    "IC50": 295
  }
]

====

- Tested on: HNXF CAL 27
- Assay info: Monolayer propidium iodide assay, HNXF CAL 27
- Type: cell-based
- Applied conditions: Homo sapiens, 96 h; HNXF CAL 27, Head and Neck; 4 days of treatment
Parameter measured: IC50

[
  {
    "Compound": "CCCC1CCCCCC(O)CC(=O)NC2CSSCC(NC2=O)C(=O)O1 (stereo not shown) [compound of formula (1)]",
    "Assay system": "HNXF CAL 27",
    "Observed value": "39 nM"
  }
]

====

- System: SXF SAOS2
- Assay info: Monolayer propidium iodide assay, SXF SAOS2
- Format: cell-based
- Applied conditions: Homo sapiens, SAOS-2, 96 h; SXF SAOS2, Sarcoma; 4 days of treatment

[
  {
    "Molecule": "CCCC1CCCCCC(O)CC(=O)NC2CSSCC(NC2=O)C(=O)O1 (stereo not shown) [compound of formula (1)]",
    "IC50 / nM": 185
  }
]

====

- System: UXF 1138L
- Assay info: Monolayer propidium iodide assay, UXF 1138L
- Format: cell-based
- Applied conditions: Homo sapiens, 96 h, Uterus, 4 days of treatment
pIC50: −log10 of the molar value.

[
  {
    "Compound": "CCCC1CCCCCC(O)CC(=O)NC2CSSCC(NC2=O)C(=O)O1 (stereo not shown) [compound of formula (1)]",
    "Assay system": "UXF 1138L",
    "pIC50": 6.90
  }
]

====

- System: LXFA 289L
- Assay info: Monolayer propidium iodide assay, LXFA 289L
- Type: cell-based
- Applied conditions: Homo sapiens, 96 h, Lung, 4 days of treatment
pIC50: −log10 of the molar value.

[
  {
    "Compound": "CCCC1CCCCCC(O)CC(=O)NC2CSSCC(NC2=O)C(=O)O1 (stereo not shown)",
    "pIC50": 7.39
  }
]

====

- Tested on: panel of 40 human tumor cell lines
- Assay info: Monolayer propidium iodide assay, whole panel
- Type: cell-based
- Applied conditions: Homo sapiens; geometric mean over the 40 cell lines; read-out: Mean IC50
- Description: Oncotest GmbH, Germany's proprietary tumor cell line panel comprises 40 cell lines. These cell lines were derived from 15 different tumor histotypes, each represented by 1 to 6 different cell lines. […] Stock solutions of the compound of formula (1) (3.3 mM in DMSO) were prepared and stored in small aliquots (200 μl) at −20° C. […] Each concentration was evaluated in triplicate. […]
pIC50: −log10 of the molar value.
Parameter measured: pIC50

[
  {
    "Molecule": "CCCC1CCCCCC(O)CC(=O)NC2CSSCC(NC2=O)C(=O)O1 (stereo not shown) [compound of formula (1)]",
    "Assay system": "panel of 40 human tumor cell lines",
    "Observed value": 7.05
  }
]

====

- Test system: BXF T 24
- Assay info: Monolayer propidium iodide assay, BXF T 24
- Assay type: cell-based
- Applied conditions: Homo sapiens, 96 h; BXF T 24, Bladder; 4 days of treatment
- Protocol: Oncotest GmbH, Germany's proprietary tumor cell line panel comprises 40 cell lines. These cell lines were derived from 15 different tumor histotypes, each represented by 1 to 6 different cell lines. […] Stock solutions of the compound of formula (1) (3.3 mM in DMSO) were prepared and stored in small aliquots (200 μl) at −20° C. […] Each concentration was evaluated in triplicate. […]

[
  {
    "Compound": "CCCC1CCCCCC(O)CC(=O)NC2CSSCC(NC2=O)C(=O)O1 (stereo not shown) [compound of formula (1)]",
    "IC50 (nM)": 50
  }
]

====

- Test system: CXF RKO
- Assay info: Monolayer propidium iodide assay, CXF RKO
- Type: cell-based
- Applied conditions: Homo sapiens, 96 h, Colon, 4 days of treatment
Parameter measured: IC50 (nM)

[
  {
    "Compound": "CCCC1CCCCCC(O)CC(=O)NC2CSSCC(NC2=O)C(=O)O1 (stereo not shown) [compound of formula (1)]",
    "Observed value": 74
  }
]

====

- Tested on: LXFL 1121L
- Assay info: Monolayer propidium iodide assay, LXFL 1121L
- Type: cell-based
- Applied conditions: Homo sapiens, 96 h, Lung, 4 days of treatment
pIC50: −log10 of the molar value.
Parameter measured: pIC50

[
  {
    "Molecule": "CCCC1CCCCCC(O)CC(=O)NC2CSSCC(NC2=O)C(=O)O1 (stereo not shown)",
    "Observed value": 7.33
  }
]

====

- Tested on: LXFA 526L
- Assay info: Monolayer propidium iodide assay, LXFA 526L
- Assay type: cell-based
- Applied conditions: Homo sapiens, 96 h, Lung, 4 days of treatment
pIC50: −log10 of the molar value.

[
  {
    "Compound": "CCCC1CCCCCC(O)CC(=O)NC2CSSCC(NC2=O)C(=O)O1 (stereo not shown)",
    "Assay system": "LXFA 526L",
    "pIC50": 7.68
  }
]

====

- System: BXF 1218L
- Assay info: Monolayer propidium iodide assay, BXF 1218L
- Type: cell-based
- Applied conditions: Homo sapiens, 96 h, Bladder, 4 days of treatment
- Experimental: Oncotest GmbH, Germany's proprietary tumor cell line panel comprises 40 cell lines. These cell lines were derived from 15 different tumor histotypes, each represented by 1 to 6 different cell lines. […] Stock solutions of the compound of formula (1) (3.3 mM in DMSO) were prepared and stored in small aliquots (200 μl) at −20° C. […] Each concentration was evaluated in triplicate. […]
pIC50: −log10 of the molar value.

[
  {
    "Compound": "CCCC1CCCCCC(O)CC(=O)NC2CSSCC(NC2=O)C(=O)O1 (stereo not shown) [compound of formula (1)]",
    "pIC50": 7.34
  }
]

====

- Test system: PRXF DU 145
- Assay info: Monolayer propidium iodide assay, PRXF DU 145
- Format: cell-based
- Applied conditions: Homo sapiens, 96 h; PRXF DU 145, Prostate; 4 days of treatment
Parameter measured: IC50

[
  {
    "Molecule": "CCCC1CCCCCC(O)CC(=O)NC2CSSCC(NC2=O)C(=O)O1 (stereo not shown) [compound of formula (1)]",
    "Assay system": "PRXF DU 145",
    "Observed value": "52 nM"
  }
]

The values you see were collected from patent US20130130992A1.
